Assignment: determine reported log P for the given compounds.
assay: Determination of the log P values by HPLC (formic acid method)
Assay type: physicochemical
condition label: reversed-phase column (C 18), acidic range (pH 3.4), 55° C.

Data request: Requested read-out: log P. Entry: N#Cc1cc(F)ccc1-n1ccc(NC(=O)c2c(F)cccc2F)n1 [Compound I-1-628]
Data returned: 2.39

Data request: Requested read-out: log P. Entry: O=C(Nc1ccn(-c2nc(F)c(F)cc2F)n1)c1ccccc1I [Compound I-1-165]
Data returned: 3.04

Data request: Requested read-out: log P. Entry: CS(=O)(=O)c1ccccc1C(=O)Nc1ccn(-c2c(F)cccc2F)n1 [Compound I-1-80]
Data returned: 1.95

Data request: Requested read-out: log P. Entry: O=C(Nc1ccn(-c2c(F)cccc2F)n1)C1=C(C(F)(F)F)OCCS1 [Compound I-1-102]
Data returned: 2.56

Data request: Requested read-out: log P. Entry: O=C(Nc1ccn(-c2ccccc2Cl)n1)c1ccccc1C(F)(F)F [Compound I-1-14]
Data returned: 2.96

Data request: Requested read-out: log P. Entry: O=C(Nc1cnn(-c2ncc(F)cc2F)n1)c1ccccc1Cl [Compound I-2-70]
Data returned: 2.22

Data request: Requested read-out: log P. Entry: O=C(Nc1ccn(-c2ncc(Cl)cc2F)n1)c1c(F)cccc1F [Compound I-1-588]
Data returned: 2.60

Data request: Requested read-out: log P. Entry: O=C(Nc1ccn(-c2ncc(F)cc2Cl)n1)c1c(F)cccc1F [Compound I-1-286]
Data returned: 2.33

Data request: Requested read-out: log P. Entry: Cc1nc(C(F)(F)F)c(C(=O)Nc2ccn(-c3ccccc3Cl)n2)s1 [Compound I-1-371]
Data returned: 2.88

----------
assay: Determination of the log P values by HPLC (formic acid method)
Type: physicochemical
condition label: reversed-phase column (C 18), acidic range (pH 3.4), 55° C.
Assignment: determine reported log P for the given compounds.
// return just the number, without any unit appended

Data request: Requested read-out: log P. Entry: O=C(Nc1cnn(-c2ccccc2Br)n1)c1ccccc1Cl
Data returned: 2.93

Data request: Requested read-out: log P. Entry: Cn1cc(Br)c(C(=O)Nc2ccn(-c3ncc(F)cc3F)n2)n1
Data returned: 2.15

Data request: Requested read-out: log P. Entry: O=C(Nc1cnn(-c2c(F)cccc2F)n1)c1sccc1C(F)(F)F
Data returned: 2.95

Data request: Requested read-out: log P. Entry: O=C(Nc1cnn(-c2ccccc2Br)n1)c1ccccc1C(F)(F)F
Data returned: 3.03

Data request: Requested read-out: log P. Entry: Cc1nn(-c2ccccc2Cl)nc1NC(=O)c1ccccc1I
Data returned: 2.92

Data request: Requested read-out: log P. Entry: O=C(Nc1ccn(-c2ccccc2[N+](=O)[O-])n1)c1cccnc1C(F)(F)F
Data returned: 2.16

Data request: Requested read-out: log P. Entry: CCOc1cccc(Cl)c1-n1ccc(NC(=O)c2ccccc2Br)n1
Data returned: 3.03

Data request: Requested read-out: log P. Entry: O=C(Nc1ccn(-c2c(F)cccc2F)n1)c1sccc1C(F)F
Data returned: 2.80

Data request: Requested read-out: log P. Entry: O=C(Nc1nn(-c2ccccc2Cl)cc1Cl)c1ccccc1Cl
Data returned: 2.88

----------
Assignment: determine reported efficacy for the given compounds.
System: Boophilus microplus
assay: Boophilus microplus test (DIP)
Assay type: in vivo
condition label: application rate 100 ppm, after 7 days by laying of fertile eggs, 100% = no fertile eggs
Just the number please, in %, no unit attached.

Data request: Requested read-out: efficacy. Entry: O=C(Nc1ccn(-c2c(F)cccc2F)n1)c1ccccc1Br
Data returned: 80

Data request: Requested read-out: efficacy. Entry: O=C(Nc1ccn(-c2ccccc2Br)n1)c1ccccc1I
Data returned: 90

Data request: Requested read-out: efficacy. Entry: O=C(Nc1ccn(-c2c(F)cccc2F)n1)c1nccnc1C(F)(F)F
Data returned: 100

Data request: Requested read-out: efficacy. Entry: Cc1nn(C)c(Cl)c1C(=O)Nc1ccn(-c2ccccc2Cl)n1
Data returned: 100

Data request: Requested read-out: efficacy. Entry: O=C(Nc1ccn(-c2ccccc2C(F)(F)F)n1)c1ccccc1I
Data returned: 100

Data request: Requested read-out: efficacy. Entry: O=C(Nc1ccn(-c2ccccc2Cl)n1)c1ncccc1C(F)(F)F
Data returned: 90

Data request: Requested read-out: efficacy. Entry: O=C(Nc1ccn(-c2c(F)cccc2F)n1)c1cccnc1Br
Data returned: 100

Data request: Requested read-out: efficacy. Entry: O=C(Nc1ccn(-c2ccccc2Cl)n1)c1ccccc1I
Data returned: 100

Data request: Requested read-out: efficacy. Entry: O=C(Nc1ccn(-c2ccccc2Cl)n1)c1ccccc1Br
Data returned: 80

Data request: Requested read-out: efficacy. Entry: O=C(Nc1ccn(-c2c(F)cccc2F)n1)c1ncccc1C(F)(F)F
Data returned: 90

Data request: Requested read-out: efficacy. Entry: O=C(Nc1ccn(-c2c(F)cccc2F)n1)c1ccccc1I
Data returned: 100

Data request: Requested read-out: efficacy. Entry: O=C(Nc1cnn(-c2ccccc2Cl)n1)c1ccccc1C(F)(F)F
Data returned: 100

----------
assay: Determination of the log P values by HPLC (formic acid method)
Format: physicochemical
condition label: reversed-phase column (C 18), acidic range (pH 3.4), 55° C.
measured endpoint: log P
// return just the number, without any unit appended

Data request: Requested read-out: log P. Entry: O=C(Nc1ccn(-c2ccccc2[N+](=O)[O-])n1)c1ccccc1Cl [Compound I-1-125]
Data returned: 2.46

Data request: Requested read-out: log P. Entry: O=C(Nc1ccn(-c2ncc(F)cc2F)n1)c1ncccc1C(F)(F)F [Compound I-1-502]
Data returned: 2.38

Data request: Requested read-out: log P. Entry: CN(C(=O)c1ccccc1C(F)(F)F)c1ccn(-c2ncc(F)cc2F)n1 [Compound I-1-467]
Data returned: 2.96

Data request: Requested read-out: log P. Entry: O=C(Nc1ccn(-c2ncc(F)cc2F)n1)c1nccnc1C(F)(F)F [Compound I-1-501]
Data returned: 2.20

Data request: Requested read-out: log P. Entry: O=C(Nc1ccn(-c2ccccc2Cl)n1)c1cccnc1F [Compound I-1-364]
Data returned: 2.38

Data request: Requested read-out: log P. Entry: O=C(Nc1ccn(-c2ccc(Cl)cc2Cl)n1)c1ccccc1C(F)(F)F [Compound I-1-198]
Data returned: 3.25

Data request: Requested read-out: log P. Entry: Cc1nn(-c2ncccc2Cl)nc1NC(=O)c1ccccc1C(F)(F)F [Compound I-2-53]
Data returned: 2.33

Data request: Requested read-out: log P. Entry: CC(=O)c1ccccc1C(=O)Nc1ccn(-c2ncc(F)cc2F)n1 [Compound I-1-481]
Data returned: 2.22

Data request: Requested read-out: log P. Entry: O=C(Nc1ccn(-c2c(F)cccc2F)n1)c1ccccc1C1CC1 [Compound I-1-273]
Data returned: 2.89

----------
Tested on: Cooperia curticei
assay: Cooperia curticei test (COOPCU)
Type: in vivo
condition label: application rate 4 ppm; nematode larvae; after 5 days
Assignment: determine reported efficacy (kill) for the given compounds.
Just the number please, in %, no unit attached.

Data request: Requested read-out: efficacy (kill). Entry: O=C(Nc1ccn(-c2c(F)cccc2F)n1)c1sccc1C(F)(F)F [Compound I-1-284]
Data returned: 80

Data request: Requested read-out: efficacy (kill). Entry: O=C(Nc1ccn(-c2cccc(Cl)c2F)n1)c1ccccc1C(F)(F)F [Compound I-1-555]
Data returned: 90

Data request: Requested read-out: efficacy (kill). Entry: O=C(Nc1cnn(-c2ccccc2Br)n1)c1ccccc1Cl [Compound I-2-7]
Data returned: 80

Data request: Requested read-out: efficacy (kill). Entry: O=C(Nc1ccn(-c2cc(F)ccc2F)n1)c1sccc1I [Compound I-1-221]
Data returned: 90

----------
assay: Determination of the log P values by HPLC (formic acid method)
Format: physicochemical
condition label: reversed-phase column (C 18), acidic range (pH 3.4), 55° C.
Assignment: determine reported log P for the given molecules.
// return just the number, without any unit appended

Data request: Requested read-out: log P. Entry: O=C(Nc1cnn(-c2ncc(C(F)(F)F)cc2Cl)n1)c1ccccc1C(F)(F)F
Data returned: 3.28

Data request: Requested read-out: log P. Entry: Cn1nc(C(F)F)c(C(=O)Nc2ccn(-c3c(F)cccc3F)n2)c1F
Data returned: 2.27

Data request: Requested read-out: log P. Entry: O=C(Nc1cnn(-c2ncccc2F)n1)c1ccccc1Cl
Data returned: 1.99

Data request: Requested read-out: log P. Entry: CCOc1cccc(F)c1-n1ccc(NC(=O)c2ccccc2Br)n1
Data returned: 2.87

Data request: Requested read-out: log P. Entry: O=C(Nc1ccn(-c2c(F)cccc2F)n1)c1cccnc1OC(F)(F)F
Data returned: 2.77

Data request: Requested read-out: log P. Entry: Cc1nn(C)c(F)c1C(=O)Nc1ccn(-c2c(F)cccc2F)n1
Data returned: 1.98

Data request: Requested read-out: log P. Entry: O=C(Nc1nn(-c2cc(F)cnc2F)c2ccc(F)cc12)c1ccccc1C(F)(F)F
Data returned: 3.39

Data request: Requested read-out: log P. Entry: CC(C)n1nc([N+](=O)[O-])c(Cl)c1C(=O)Nc1ccn(-c2c(F)cccc2F)n1
Data returned: 3.28

Data request: Requested read-out: log P. Entry: O=C(c1cccnc1C(F)(F)F)N(C(=O)c1cccnc1C(F)(F)F)c1ccn(-c2ncccc2F)n1
Data returned: 2.93

Data request: Requested read-out: log P. Entry: O=C(NC1=NN(c2c(F)cccc2F)CC1)c1ccccc1I
Data returned: 2.31

Data request: Requested read-out: log P. Entry: Cc1nn(C)c(C(=O)Nc2ccn(-c3c(F)cccc3F)n2)c1Cl
Data returned: 2.78

Data request: Requested read-out: log P. Entry: Cc1nc(C(F)(F)F)c(C(=O)Nc2ccn(-c3ncc(F)cc3F)n2)s1
Data returned: 2.35

Data request: Requested read-out: log P. Entry: Cn1cnnc1C(=O)Nc1ccn(-c2ncc(F)cc2F)n1
Data returned: 1.29

Data request: Requested read-out: log P. Entry: Cc1ccsc1C(=O)Nc1ccn(-c2ccccc2Cl)n1
Data returned: 2.96

Data request: Requested read-out: log P. Entry: O=C(Nc1ccn(-c2ncc(F)cc2F)n1)c1cccc(Cl)c1Cl
Data returned: 2.72

Data request: Requested read-out: log P. Entry: O=C(Nc1ccn(-c2nccnc2F)n1)c1ccccc1C(F)(F)F
Data returned: 2.24

Data request: Requested read-out: log P. Entry: O=C(Nc1ccn(-c2ncccc2Br)n1)c1ccccc1I
Data returned: 2.42

Data request: Requested read-out: log P. Entry: Cn1cccc1C(=O)Nc1ccn(-c2ncc(F)cc2F)n1
Data returned: 2.16
